The reader will find reported inhibition at 10 µM values listed item by item below.
Assay: Inhibition of homologous recombination in human CRMM-1 cells at 10 uM incubated for 12 hrs by real-time PCR analysis relative to control
Format: functional
Quick reminder: number only, in %, skip the unit.

These solved cases illustrate the format of a correct answer.
Suppose we examine the compound "C=CCNCCCOc1ccc2ccccc2c1C(=O)CCCc1ccccc1" ; what inhibition at 10 µM value has been reported?
55.7

Suppose we examine the compound CCCOCC(O)COc1ccccc1C(=O)CCc1ccccc1 (stereo unspecified) ; what inhibition at 10 µM value has been reported?
20.1

Suppose we examine the compound CCCNCC(O)COc1cccc(C(=O)CCc2ccccc2)c1 (stereo unspecified) ; what inhibition at 10 µM value has been reported?
52.5

Suppose we examine the compound "O=C(CCCc1ccccc1)c1c(OCCCN2CCNCC2)ccc2ccccc12" ; what inhibition at 10 µM value has been reported?
89.5

Suppose we examine the compound "O=C(CCCc1ccccc1)c1c(OCCCN2CCSC2)ccc2ccccc12" ; what inhibition at 10 µM value has been reported?
72.1

Turning to the following compound.
Suppose we examine the compound "CCCOCC(=O)COc1ccccc1C(=O)CCc1ccccc1" ; what inhibition at 10 µM value has been reported?
20.6

----------
Assay: Inhibition of homologous recombination in human CRMM-1 cells at 10 uM incubated for 12 hrs by real-time PCR analysis relative to control
Format: functional
Entry flag: 1 if inhibition at 10 µM reaches 50%; 0 if it does not.

Is the recorded value of inhibition at 10 µM equal to or greater than 50% for this molecule? "CCCNCCCOc1c(C(=O)CCCc2ccccc2)ccc2ccccc12"
1

Is the recorded value of inhibition at 10 µM equal to or greater than 50% for this molecule? "O=C(CCCc1ccccc1)c1c(OCCCN2CCC2)ccc2ccccc12"
0

Is the recorded value of inhibition at 10 µM equal to or greater than 50% for this molecule? "CN1CCN(CCCOc2ccc3ccccc3c2C(=O)CCCc2ccccc2)CC1"
1

New cases:
Is the recorded value of inhibition at 10 µM equal to or greater than 50% for this molecule? "CCCNCCCOc1cc2ccccc2cc1C(=O)CCCc1ccccc1"
1

Is the recorded value of inhibition at 10 µM equal to or greater than 50% for this molecule? CCCNCC(O)COc1ccccc1C(=O)Cc1ccccc1 (configuration not stated)
1

----------
Assay: Antiproliferative activity against human PIG1 cells assessed as cell growth inhibition incubated for 72 hrs by CCK8 assay
Type: toxicity, cell-based
readoutKind: log10 of IC50 at 72 h (log10 of the value in µM)
Base-10 log of IC50 at 72 h, unit µM.

These solved cases illustrate the format of a correct answer.
Suppose we examine the compound "O=C(CCCc1ccccc1)c1c(OCc2cccnc2)ccc2ccccc12" ; what log10 of IC50 at 72 h value has been reported?
1.40

Suppose we examine the compound "CN1CCN(CCCOc2ccc3ccccc3c2C(=O)CCCc2ccccc2)CC1" ; what log10 of IC50 at 72 h value has been reported?
1.02

Suppose we examine the compound "O=C(CCCc1ccccc1)c1c(OCCCNC2CC2)ccc2ccccc12" ; what log10 of IC50 at 72 h value has been reported?
0.90

Suppose we examine the compound "CCCNCCCOc1cc2ccccc2cc1C(=O)CCCc1ccccc1" ; what log10 of IC50 at 72 h value has been reported?
1.13

Suppose we examine the compound "O=C(CC(F)(F)F)NCCCOc1ccc2ccccc2c1C(=O)CCCc1ccccc1" ; what log10 of IC50 at 72 h value has been reported?
1.27

New cases:
Suppose we examine the compound CCCNCC(O)COc1ccccc1C(O)CCc1ccccc1 (stereo unspecified) ; what log10 of IC50 at 72 h value has been reported?
1.95

Suppose we examine the compound "CCC(=O)NCCCOc1ccc2ccccc2c1C(=O)CCCc1ccccc1" ; what log10 of IC50 at 72 h value has been reported?
1.29

Suppose we examine the compound CCCNCC(O)COc1cccc(C(=O)CCc2ccccc2)c1 (stereo unspecified) ; what log10 of IC50 at 72 h value has been reported?
1.80

Suppose we examine the compound "C=CC(=O)NCCCOc1ccc2ccccc2c1C(=O)CCCc1ccccc1" ; what log10 of IC50 at 72 h value has been reported?
1.41

Suppose we examine the compound "O=C(CCCc1ccccc1)c1c(OCCCN2CCNCC2)ccc2ccccc12" ; what log10 of IC50 at 72 h value has been reported?
1.52

----------
Assay: Antiproliferative activity against human CM2005.1 cells assessed as cell growth inhibition incubated for 72 hrs by CCK8 assay
Assay type: functional, cell-based
Conditions: CM2005.1, 72 h
API: label(entry) gives true if the entry's IC50 is strictly smaller than 10 µM; on equality or larger values it gives false.

Please indicate whether the reported IC50 of "C=CCNCCCOc1ccc2ccccc2c1C(=O)CCCc1ccccc1" is strictly below 10 µM.
true

Please indicate whether the reported IC50 of "O=C(CCCc1ccccc1)c1c(OCCCN2CCCC2)ccc2ccccc12" is strictly below 10 µM.
false

Please indicate whether the reported IC50 of "O=C(CCCc1ccccc1)c1c(OCc2cccnc2)ccc2ccccc12" is strictly below 10 µM.
false

Please indicate whether the reported IC50 of "O=C(CCCc1ccccc1)c1c(OCCCN2CCSC2)ccc2ccccc12" is strictly below 10 µM.
false

Please indicate whether the reported IC50 of "CC(C)(C)C(=O)NCCCOc1ccc2ccccc2c1C(=O)CCCc1ccccc1" is strictly below 10 µM.
false

New cases:
Please indicate whether the reported IC50 of "CCCNCCCOc1ccc2ccccc2c1C(=O)CCCc1ccccc1" is strictly below 10 µM.
true

Please indicate whether the reported IC50 of CCCNCC(O)COc1ccccc1CCCc1ccccc1 (stereo not drawn) is strictly below 10 µM.
true

Please indicate whether the reported IC50 of C=C(CCc1ccccc1)c1ccccc1OCC(O)CNCCC (stereo not drawn) is strictly below 10 µM.
true

----------
Test: Antiproliferative activity against human PIG1 cells assessed as cell growth inhibition incubated for 72 hrs by CCK8 assay
Format: toxicity, cell-based
readoutKind: log10 IC50 at 72 h (log10 of the value in µM)
Base-10 log of IC50 at 72 h, unit µM.

Suppose we examine the compound "O=C(CCCc1ccccc1)c1c(OCCCn2cccc2)ccc2ccccc12" ; what log10 IC50 at 72 h value has been reported?
1.88

Suppose we examine the compound "CC(C)(C)C(=O)NCCCOc1ccc2ccccc2c1C(=O)CCCc1ccccc1" ; what log10 IC50 at 72 h value has been reported?
1.15

Suppose we examine the compound "O=C(CCCc1ccccc1)c1c(OCCCN2CCSC2)ccc2ccccc12" ; what log10 IC50 at 72 h value has been reported?
1.47

New cases:
Suppose we examine the compound "CCC(C)(C)NCCCOc1ccc2ccccc2c1C(=O)CCCc1ccccc1" ; what log10 IC50 at 72 h value has been reported?
0.76

Suppose we examine the compound "CCCNCCCOc1cc2c(cc1C(=O)CCCc1ccccc1)OCO2" ; what log10 IC50 at 72 h value has been reported?
1.19

Suppose we examine the compound "CCCNCCCOc1ccc2ccccc2c1C(=O)CCCc1ccccc1" ; what log10 IC50 at 72 h value has been reported?
1.89

Suppose we examine the compound CCCN(C)CC(O)COc1ccccc1C(=O)CCc1ccccc1 (stereo not drawn) ; what log10 IC50 at 72 h value has been reported?
1.86

Suppose we examine the compound "O=C(CCCc1ccccc1)c1c(OCCCN2CCC2)ccc2ccccc12" ; what log10 IC50 at 72 h value has been reported?
1.62

----------
Assay: Antiproliferative activity against human HL7702 cells assessed as cell growth inhibition incubated for 72 hrs by CCK8 assay
Format: toxicity, cell-based
Conditions: HL7702 (L02) cells
API: label(entry) gives yes (1) if the entry's IC50 at 72 h is strictly smaller than 20 µM; on equality or larger values it gives no (0).

Please indicate whether the reported IC50 at 72 h of CCCNCC(O)COc1ccccc1C(=O)CCc1ccccc1 (centres undefined) is strictly below 20 µM.
no (0)

New cases:
Please indicate whether the reported IC50 at 72 h of "C=CCNCCCOc1ccc2ccccc2c1C(=O)CCCc1ccccc1" is strictly below 20 µM.
yes (1)

Please indicate whether the reported IC50 at 72 h of "CCCNCCCOc1ccc2ccccc2c1C(=O)CCCc1ccccc1" is strictly below 20 µM.
no (0)

Please indicate whether the reported IC50 at 72 h of CCCNCC(O)COc1ccccc1C(O)CCc1ccccc1 (centres undefined) is strictly below 20 µM.
no (0)

Please indicate whether the reported IC50 at 72 h of "O=C(CCCc1ccccc1)c1c(OCCCN2CCOCC2)ccc2ccccc12" is strictly below 20 µM.
no (0)

Please indicate whether the reported IC50 at 72 h of CCCNCC(O)COc1ccccc1CCCc1ccccc1 (centres undefined) is strictly below 20 µM.
yes (1)

----------
Assay: Cytotoxicity against human PIG1 cells at 20 uM incubated for 72 hrs by CCK8 assay relative to control
Type: toxicity, cell-based
Settings: read-out: INH
readoutKind: cytotoxicity at 72 h, 20 µM (%)
Quick reminder: number only, in %, skip the unit.

Suppose we examine the molecule CCCNCC(O)COc1ccccc1C(=O)CCc1ccccc1 (stereo unspecified) ; what cytotoxicity at 72 h, 20 µM value has been reported?
26
